- testedTarget: WDR5Δ23 (WD repeat domain 5, residues 24–334) (human, UniProt P61964 24-334)
- assayExplanation: fluorescence polarisation
Me3 = trimethyl-lysine, K(Me3)
propertyMeasured: pKi
Conceptually, pKi converts a concentration in mol/L into minus its log10.

Measured pKi, H-ARTK(Me3)QTARKS-NH2 [H3-10mer-K4Me3 (H2N-ARTK(Me3)QTARKS-NH2)] : 4.81
